target: T1, NPNA6 peptide (Ac-[residues removed]-NH2) (Plasmodium falciparum (synthetic CSP …)
T1 construct: source: synthetic peptide, bought: Innopep Inc
measurement-protocol: ITC; peptide in the syringe, Fab (~10 uM) in the cell; DPBS; 25 C; single-site binding model; triplicate; apparent affinity
conditions-used: both partners purified
assay-readout: pKd
Give bare numbers, as −log10 of the molar value.

Consider the worked cases shown below.
# binder, pKd
measured = [
    ("Fab364 (Fab, V domains shown, also called mAb364; source: ExpiCHO cells, purified (HiTrap Protein G, SEC)) VH: QVQLVESGGGVVQPGGSLRLSCAASGFTFSGYGMHWVRQVPGKGLEWVAIIWFDGSQKYYADSVQGRFTISRDNSKKTLFLRMNSLRAEDTAVYYCAKVHDDEPTQDYWGQGTLVTVSS VL: DIQMTQSPSTLSASVGDRVTITCRASQGISTSLAWYQQKPGKAPKLLIYKASSLESGVPSRFSGSGSGTEFTLTITSLQPEDFATYYCQQYKRYWTFGQGTKVEIK", 7.57),
    ("Fab317 (Fab, V domains shown, also called mAb317; source: ExpiCHO cells, purified (HiTrap Protein G, SEC)) VH: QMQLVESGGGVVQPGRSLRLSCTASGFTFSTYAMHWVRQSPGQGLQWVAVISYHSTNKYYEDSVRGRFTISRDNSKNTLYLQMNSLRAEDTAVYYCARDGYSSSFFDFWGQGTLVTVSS VL: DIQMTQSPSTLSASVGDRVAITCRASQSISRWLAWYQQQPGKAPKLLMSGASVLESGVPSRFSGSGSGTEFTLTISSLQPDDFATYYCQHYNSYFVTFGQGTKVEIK", 6.95),
]

Q. Reported pKd for Fab224 (Fab, V domains shown, also called mAb224; source: ExpiCHO cells, purified (HiTrap Protein G, SEC)) VH: EVQLVESGGGLVQPGRSLRLPCTASGFSFGDHAMSWVRQAPGKGLEWVGFIRKTTYGATTHYAAAVRGRFTISRDDSKSIVYLQMNSLKTEDTAVYFCTRVQLDYGPGYQYYGMDVWGQGTTVTVSS VL: ESVLTQPPSVSGAPGQRVTISCTGMNSNIGAGYDVYWYQQLPGRAPKLLIYGNSNRPSGVPDRFSGSRSGTSASLAITGLQAEDEADYYCQSYDTSLNGWAFGGGTKLTVL : what is it?
A. 6.85
